Target: UniProtKB P00433
Sequence (P00433 31-338 limits assumed): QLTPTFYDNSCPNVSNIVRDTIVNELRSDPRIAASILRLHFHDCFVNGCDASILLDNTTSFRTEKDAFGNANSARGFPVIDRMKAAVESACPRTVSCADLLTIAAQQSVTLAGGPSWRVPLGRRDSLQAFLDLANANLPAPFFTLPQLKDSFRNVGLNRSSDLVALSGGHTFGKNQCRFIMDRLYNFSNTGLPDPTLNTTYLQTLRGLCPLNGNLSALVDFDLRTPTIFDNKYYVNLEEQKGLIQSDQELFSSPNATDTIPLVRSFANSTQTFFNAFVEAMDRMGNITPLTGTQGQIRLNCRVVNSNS
Assay: Comparison of compounds 1a-e at pH 8.9, time course and total intensity of chemiluminescence
Format: biochemical
Settings: 0.01 mM acridan, 0.1M phosphate pH 8.9, 6.2 mM H2O2, 2.25 mM p-iodophenol, 1×10^-13 mol HRP
Experimental: The experiments in the following examples were performed using a Turner Designs TD-20e luminometer fitted with neutral density filter for light attenuation. Data collection, analysis and display were software controlled. Constant temperature was maintained by means of an external circulating water bath connected to the luminometer. […]
Below, each of the compounds is paired with its reported I total (RLU), total light output value.

{"SMILES_ENTRY": "CN1c2ccccc2C(C(=O)Oc2ccc(O)cc2)c2ccccc21", "I total (RLU), total light output": "2 × 10^6 RLU"}
{"SMILES_ENTRY": "CN1c2ccccc2C(C(=O)Oc2cccc(O)c2)c2ccccc21", "I total (RLU), total light output": "3.6 × 10^4 RLU"}
{"SMILES_ENTRY": "CN1c2ccccc2C(C(=O)Oc2ccc3cc(O)ccc3c2)c2ccccc21", "I total (RLU), total light output": "7.4 × 10^5 RLU"}
{"SMILES_ENTRY": "Cc1ccc(S(=O)(=O)N(C(=O)C2c3ccccc3N(C)c3ccccc32)c2ccccc2)cc1", "I total (RLU), total light output": "1.5 × 10^6 RLU"}

* * *

Target: horseradish peroxidase (Armoracia rusticana)
Assay: Comparison of compounds 1a-e at pH 8.9, time course and total intensity of chemiluminescence
Assay type: biochemical
Conditions: 0.01 mM acridan, 0.1M phosphate pH 8.9, 6.2 mM H2O2, 2.25 mM p-iodophenol, 1×10^-13 mol HRP
Experimental: The experiments in the following examples were performed using a Turner Designs TD-20e luminometer fitted with neutral density filter for light attenuation. Data collection, analysis and display were software controlled. Constant temperature was maintained by means of an external circulating water bath connected to the luminometer. […]
# label = true if t max (min), time to maximum light intensity < 4 min else false

{"MOLECULE": "Cc1ccc(S(=O)(=O)N(C(=O)C2c3ccccc3N(C)c3ccccc32)c2ccccc2)cc1", "LABEL_CLASS": "true"}
{"MOLECULE": "CN1c2ccccc2C(C(=O)Oc2ccc(O)cc2)c2ccccc21", "LABEL_CLASS": "false"}
{"MOLECULE": "CN1c2ccccc2C(C(=O)Oc2ccccc2)c2ccccc21 [Compound 1a, Phenyl 10-methylacridan-9-carboxylate]", "LABEL_CLASS": "false"}
{"MOLECULE": "CN1c2ccccc2C(C(=O)Oc2cccc(O)c2)c2ccccc21", "LABEL_CLASS": "false"}
{"MOLECULE": "CN1c2ccccc2C(C(=O)Oc2ccc3cc(O)ccc3c2)c2ccccc21", "LABEL_CLASS": "true"}

Source listed as patent US5491072A.
